Just for reference, patent US6384045B1 is where these values come from.

# target_entity: acetylcholinesterase (AChE)
# condition_set: read-out: AChE inhibition constant Ki ± std. error; 30° C., pH 8.0
Hi there, I'd appreciate the recorded pKi for every entry that follows.
Answers are plain numbers, as −log10 of the molar value.

Worked set:
{"molecule": "COc1ccc(-c2cc3c(c(=O)o2)C=C2CCCC(O)C2(C)O3)cc1OC (stereo not drawn)", "pKi": 5.40}
{"molecule": "Cc1cc2c(c(=O)o1)C=C1CCCCC1O2 (stereo not drawn)", "pKi": 5.15}

## Task Reported pKi, molecule Cc1cc2c(c(=O)o1)C=C1CCC[C@H](O)[C@@]1(C)O2 : ____
## Result 4.70
